meta.source: PubChem BioAssay (NCI)

assay: NCI Yeast Anticancer Drug Screen. Data for the sgs1 mgt1 strain (AID 161);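 note: 0% = growth of cultures given vehicle only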; settings: S. cerevisiae sgs1 mgt1 strain, at 50.0 µM, active compounds read high
This is part of a sample that, as a whole, favours compounds with a hit. Of some 79,000 tested, about 15% had one in any assay.

>  <Compound>
CCCC(=O)OCCC(C)C

>  <Value Units>
%

>  <growth inhibition>
13.3

$$$$
>  <Compound>
COc1ccc(CCN2C(=O)C(=O)N(c3ccc(Cl)c(Cl)c3)C2=O)cc1OC

>  <Value Units>
%

>  <growth inhibition>
11.5

$$$$
>  <Compound>
CSC(N)=NC1CCCCC1

>  <Value Units>
%

>  <growth inhibition>
-6.05

$$$$
>  <Compound>
Fc1c(F)c(F)c(CCc2c(F)c(F)c(F)c(F)c2F)c(F)c1F

>  <Value Units>
%

>  <growth inhibition>
15.9

$$$$
>  <Compound>
CN1C/C(=C\c2ccccc2)C2=NN(C(N)=S)[C@H](c3ccccc3)[C@@H]2C1

>  <Value Units>
%

>  <growth inhibition>
-5.85

$$$$
>  <Compound>
O=C(Cc1ccccc1)NN1C(=O)/C(=C\c2cccc(O)c2)SC1=Nc1ccccc1

>  <Value Units>
%

>  <growth inhibition>
-6

$$$$
>  <Compound>
O=C1CS/C1=C/c1ccccc1

>  <Value Units>
%

>  <growth inhibition>
-15.2

$$$$
>  <Compound>
CCCC(CC)C(=O)NC(N)=O (stereo not given)

>  <Value Units>
%

>  <growth inhibition>
-7.8

$$$$
>  <Compound>
O=C(CN1C(=O)CC(c2ccccc2)(c2ccccc2)C1=O)N1CCN(CCO)CC1

>  <Value Units>
%

>  <growth inhibition>
-22.1

$$$$
>  <Compound>
CNS(=O)(=O)c1ccccc1C(=N)c1ccccc1

>  <Value Units>
%

>  <growth inhibition>
-27.6

$$$$
>  <Compound>
CCOC(=O)C(=CNC(=S)c1cccnc1)C(=O)OCC

>  <Value Units>
%

>  <growth inhibition>
-20.9

$$$$
>  <Compound>
CN(C)c1ccc(NN=C2SC(=Nc3ccccc3)C(=Nc3ccccc3)S2)cc1

>  <Value Units>
%

>  <growth inhibition>
-10.2

$$$$
>  <Compound>
Cc1ccc(-n2cnc3c(=O)[nH]cnc32)cc1N

>  <Value Units>
%

>  <growth inhibition>
3.3

$$$$
>  <Compound>
CCN(CC)CCCCCOC(=O)c1ccccc1

>  <Value Units>
%

>  <growth inhibition>
48.5

$$$$
>  <Compound>
C1CCC(C2CCC(C3CCCCC3)CC2)CC1 (stereo not given)

>  <Value Units>
%

>  <growth inhibition>
-9.55

$$$$
